- TARGET_OF_ASSAY: Serine/threonine-protein kinase DCLK2 (Homo sapiens) (UniProt Q8N568)
- Sequence (Q8N568 whole entry): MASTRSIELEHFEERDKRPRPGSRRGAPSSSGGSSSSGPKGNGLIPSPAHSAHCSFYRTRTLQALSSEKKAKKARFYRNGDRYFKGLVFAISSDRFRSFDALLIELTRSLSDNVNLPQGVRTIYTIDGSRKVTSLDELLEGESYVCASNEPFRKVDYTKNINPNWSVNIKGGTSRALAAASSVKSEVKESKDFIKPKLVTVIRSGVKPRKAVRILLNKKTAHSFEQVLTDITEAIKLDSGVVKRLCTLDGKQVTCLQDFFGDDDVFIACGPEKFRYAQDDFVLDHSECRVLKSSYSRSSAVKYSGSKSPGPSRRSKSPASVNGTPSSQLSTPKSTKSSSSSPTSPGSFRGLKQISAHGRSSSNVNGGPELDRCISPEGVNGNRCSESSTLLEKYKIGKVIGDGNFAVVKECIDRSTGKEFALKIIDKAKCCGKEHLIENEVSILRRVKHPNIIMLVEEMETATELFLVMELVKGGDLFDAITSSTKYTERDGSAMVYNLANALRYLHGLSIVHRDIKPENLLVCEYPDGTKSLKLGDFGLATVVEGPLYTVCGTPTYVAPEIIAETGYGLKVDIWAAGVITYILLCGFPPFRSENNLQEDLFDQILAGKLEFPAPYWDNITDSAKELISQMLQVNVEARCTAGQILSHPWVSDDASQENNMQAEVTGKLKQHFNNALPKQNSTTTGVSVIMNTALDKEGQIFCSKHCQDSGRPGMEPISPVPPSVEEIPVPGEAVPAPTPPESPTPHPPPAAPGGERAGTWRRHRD
- TEST_CONDITIONS: at 10 µM
PROPERTY_MEASURED: residual activity (%)
// return numeric value only (unit: %, not printed)

SAMPLE_SMILES: CCN(CC)C(=O)c1ccc(Nc2nc(OCC3CCCCC3)c3nc[nH]c3n2)cc1
U: %
ENDPOINT_VALUE: 99
--
SAMPLE_SMILES: CO[C@H]1[C@@H](OC)C[C@H](C)[C@@H](OC)C2=CC(=O)C=C(NC(=O)/C(C)=C/C=C/[C@H](OC)[C@@H](OC(N)=O)/C(C)=C/[C@@H]1C)C2=O
U: %
ENDPOINT_VALUE: 75
--
SAMPLE_SMILES: COc1cccc(-c2cc(=O)c3ccccc3o2)c1N
U: %
ENDPOINT_VALUE: 120
--
SAMPLE_SMILES: Cc1nc2cc3nc(-c4cccs4)cnc3cc2n1C
U: %
ENDPOINT_VALUE: 108
--
SAMPLE_SMILES: O=C(Nc1cccc(Nc2nccc(Nc3cccc(C(F)(F)F)c3)n2)c1)C1CC1
U: %
ENDPOINT_VALUE: 102

What the record says about "COc1cc2ncnc(Nc3ccc(NC(=O)c4ccccc4)cc3)c2cc1OC" : residual activity is 104

# residual activity of "COc1ccc(CNc2nc(N(CCO)CCO)nc3c2ncn3C(C)C)cc1" = 80

The compound identified as "O=C1c2ccccc2-[n+]2ccc3c([nH]c4ccccc43)c21" registered its residual activity at 94

residual activity in this record for "Oc1ccc(-c2nc(-c3ccc(F)cc3)c(-c3ccncc3)[nH]2)cc1" : 76

Record "CNc1cc2c(Nc3cccc(Br)c3)ncnc2cn1" . Reported residual activity: 97

---

- TARGET_OF_ASSAY: Ribosomal protein S6 kinase alpha-3 (Homo sapiens)
- TEST_CONDITIONS: at 10 µM
PROPERTY_MEASURED: residual activity
Put down the number, then write its unit next to it.

// known answers, use as guide
MOLECULE: O=C1c2ccccc2-[n+]2ccc3c([nH]c4ccccc43)c21
residual activity: 50%

MOLECULE: CN(C)c1ccc(/C=C2\C(=O)Nc3ccccc32)cc1
residual activity: 16%

MOLECULE: O=C1Nc2ccccc2/C1=C1/Nc2ccccc2/C1=N\OCCC(O)CO (stereo not given)
residual activity: 1%

MOLECULE: Cc1ccc(NC2=CC(=O)c3sc(C)nc3C2=O)cc1
residual activity: 123%

Kindly consider the entry below.
residual activity reported for this molecule "CO[C@H]1[C@@H](OC)C[C@H](C)[C@@H](OC)C2=CC(=O)C=C(NC(=O)/C(C)=C/C=C/[C@H](OC)[C@@H](OC(N)=O)/C(C)=C/[C@@H]1C)C2=O" : 36%

---

- TARGET_OF_ASSAY: Serine/threonine-protein kinase ULK3 (Homo sapiens)
- TEST_CONDITIONS: at 1 µM
Output YES for records whose residual activity is lower than 60%, NO for records at or above 60%.

SAMPLE_SMILES: Ic1cccc(CSc2nnc(-c3ccncc3)o2)c1
QUALITATIVE_LABEL: NO

SAMPLE_SMILES: N#CC(C#N)=C(N)/C(C#N)=C/c1ccc(O)cc1
QUALITATIVE_LABEL: NO

SAMPLE_SMILES: O=C(Nc1cccc(Nc2cc(Nc3cccc(C(F)(F)F)c3)ncn2)c1)C1CC1
QUALITATIVE_LABEL: NO

SAMPLE_SMILES: Cn1cc(/C=C2\C(=O)Nc3ccc(S(N)(=O)=O)cc32)c2ccccc21
QUALITATIVE_LABEL: YES

SAMPLE_SMILES: O=[N+]([O-])c1ccc(-c2nc(-c3ccc(F)cc3)c(-c3ccncc3)[nH]2)cc1
QUALITATIVE_LABEL: NO

Please indicate whether the reported residual activity of "CN(C)CCCn1cc(C2=C(c3c[nH]c4ccccc34)C(=O)NC2=O)c2ccccc21" is strictly below 60%.
NO

Please state whether residual activity is below 60% for "CCN(CC)C(=O)c1ccc(Nc2nc(OCC3CCCCC3)c3nc[nH]c3n2)cc1"
YES

Quick check: does "O=C1Nc2ccc(Br)cc2/C1=C\c1cc2c([nH]1)CCCC2" have residual activity under 60%?
YES

Given "O=C1Nc2cc(Br)ccc2/C1=C1/Nc2ccccc2/C1=N\O" , is recorded residual activity strictly lower than 60%?
YES

Quick check: residual activity of "O=C1NC(=O)/C(=C/c2ccc3c(c2)OC(F)(F)O3)S1" under 60%?
NO

---

- TARGET_OF_ASSAY: Serine/threonine-protein kinase D2 (Homo sapiens)
- TEST_CONDITIONS: at 1 µM
PROPERTY_MEASURED: residual activity (%)
Just the number please, in %, no unit attached.

// solved cases for residual activity follow
COMPOUND: COc1cccc(-c2cc(=O)c3ccccc3o2)c1N
ENDPOINT_VALUE: 110

COMPOUND: Nc1nc(Nc2ccc(S(N)(=O)=O)cc2)nn1C(=S)Nc1c(F)cccc1F
ENDPOINT_VALUE: 45

COMPOUND: c1ccc(-c2n[nH]cc2-c2ccnc3ccccc23)nc1
ENDPOINT_VALUE: 101

COMPOUND: Oc1ccc(Nc2nc(-c3ccc(Cl)cc3)cs2)cc1
ENDPOINT_VALUE: 106

COMPOUND: Ic1cccc(CSc2nnc(-c3ccncc3)o2)c1
ENDPOINT_VALUE: 97

COMPOUND: O=C1NC(=O)c2c1c1c3ccccc3[nH]c1c1[nH]c3cc(Br)ccc3c21
ENDPOINT_VALUE: 103

"O=C1NC(=O)/C(=C/c2ccc3c(c2)OC(F)(F)O3)S1" has a reported residual activity of 107

Data point: "CO[C@H]1C[C@@H]2CC[C@@H](C)[C@@](O)(O2)C(=O)C(=O)N2CCCC[C@H]2C(=O)O[C@H]([C@H](C)C[C@@H]2CC[C@@H](O)[C@H](OC)C2)CC(=O)[C@H](C)/C=C(\C)[C@@H](O)[C@@H](OC)C(=O)[C@H](C)C[C@H](C)/C=C/C=C/C=C/1C" ; residual activity = 102

Data point: "CNc1cc2c(Nc3cccc(Br)c3)ncnc2cn1" ; residual activity = 104

// "O=C1c2ccccc2-[n+]2ccc3c([nH]c4ccccc43)c21" : residual activity value = 101

Form: compound = "CN(C)c1ccc(/C=C2\C(=O)Nc3ccccc32)cc1" ; residual activity = 103

---

# key: entry, value: residual activity
- TARGET_OF_ASSAY: Insulin-like growth factor 1 receptor (Homo sapiens)
- TEST_CONDITIONS: at 1 µM
Numbers only here, please. The scale is %.

Some compounds with known residual activity results, for comparison:
SAMPLE_SMILES: N#C/C(=C(\N)Sc1ccc(N)cc1)c1ccccc1C(F)(F)F
U: %
ENDPOINT_VALUE: 103
//
SAMPLE_SMILES: CC(C)n1cnc2/c(=N/c3cccc(Cl)c3)nc(NCCO)[nH]c21
U: %
ENDPOINT_VALUE: 72
//
SAMPLE_SMILES: Cc1cc(Nc2nc(-c3ccccc3)nc3ccccc23)n[nH]1
U: %
ENDPOINT_VALUE: 20
//
SAMPLE_SMILES: O=C(O)c1ccc2c3c1cccc3c(=O)n1c3ccccc3nc21
U: %
ENDPOINT_VALUE: 113
//
SAMPLE_SMILES: O=C1NC(=O)/C(=C/c2ccc3c(c2)OC(F)(F)O3)S1
U: %
ENDPOINT_VALUE: 113
//
SAMPLE_SMILES: Oc1n[nH]c2nnc(-c3c(-c4ccccc4)nn4ccccc34)cc12
U: %
ENDPOINT_VALUE: 84
//
SAMPLE_SMILES: COc1cccc(-c2cc(=O)c3ccccc3o2)c1N
U: %
ENDPOINT_VALUE: 93
//
SAMPLE_SMILES: CO[C@H]1C[C@@H]2CC[C@@H](C)[C@@](O)(O2)C(=O)C(=O)N2CCCC[C@H]2C(=O)O[C@H]([C@H](C)C[C@@H]2CC[C@@H](O)[C@H](OC)C2)CC(=O)[C@H](C)/C=C(\C)[C@@H](O)[C@@H](OC)C(=O)[C@H](C)C[C@H](C)/C=C/C=C/C=C/1C
U: %
ENDPOINT_VALUE: 96

Please look at the following compound next.
Just so you know, measured residual activity for "O=[N+]([O-])c1ccc(-c2nc(-c3ccc(F)cc3)c(-c3ccncc3)[nH]2)cc1" came out at 97

---

- TARGET_OF_ASSAY: Serine/threonine-protein kinase pim-2 (Homo sapiens) (UniProt Q9P1W9)
- Sequence (Q9P1W9 whole entry, looked up): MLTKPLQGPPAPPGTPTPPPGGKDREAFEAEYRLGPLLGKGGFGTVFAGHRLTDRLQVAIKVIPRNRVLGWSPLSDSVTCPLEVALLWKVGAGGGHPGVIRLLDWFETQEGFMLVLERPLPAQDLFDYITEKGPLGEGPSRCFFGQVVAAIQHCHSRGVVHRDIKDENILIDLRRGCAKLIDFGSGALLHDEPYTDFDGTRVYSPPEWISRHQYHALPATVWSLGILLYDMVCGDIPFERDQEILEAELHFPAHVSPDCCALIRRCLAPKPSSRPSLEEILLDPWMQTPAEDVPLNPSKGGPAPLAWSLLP
- TEST_CONDITIONS: at 1 µM
PROPERTY_MEASURED: residual activity (%)
Give the value in % but do not write % after it.

Record excerpt, results attached:
SAMPLE_SMILES: COc1cc2ncc(-c3ccccc3)nc2cc1OC
residual activity [%]: 127
//
SAMPLE_SMILES: CC[n+]1c(/C=C/N(C)c2ccccc2)n(-c2ccccc2)c2ccc(-c3nc4ccccc4s3)cc21
residual activity [%]: 101
//
SAMPLE_SMILES: Oc1c2ccccc2c2c3c(cccc13)N=N2
residual activity [%]: 58
//
SAMPLE_SMILES: Cn1cnc2cc3c(Nc4cccc(Br)c4)ncnc3cc21
residual activity [%]: 84
//
SAMPLE_SMILES: O=C(Nc1cccc(Nc2cc(Nc3cccc(C(F)(F)F)c3)ncn2)c1)C1CC1
residual activity [%]: 88
//
SAMPLE_SMILES: Nc1nc(Nc2ccc(S(N)(=O)=O)cc2)nn1C(=S)Nc1c(F)cccc1F
residual activity [%]: 125
//
SAMPLE_SMILES: COc1cc2ncnc(Nc3ccc(Oc4ccccc4)cc3)c2cc1OC
residual activity [%]: 135
//
SAMPLE_SMILES: Nc1cccc(-c2cc3c(Oc4cccc(O)c4)ncnc3[nH]2)c1
residual activity [%]: 118

# residual activity (compound: "Cc1ccc(S(=O)(=O)/C=C/C#N)cc1" ) is 111

For this compound ( "CCN(CC)C(=O)c1ccc(Nc2nc(OCC3CCCCC3)c3nc[nH]c3n2)cc1" ), measured residual activity is 143

Input "CC(=O)O/N=C1\C(=C2\C(=O)Nc3cc(Br)ccc32)Nc2ccccc21" . Output residual activity: 134
